- Test system: Vero E6 infected with SARS-CoV-2
- Assay Remarks: inhibition of SARS-CoV-2 cytopathic effect; higher = more antiviral protection, active = above 15
- Condition Details: 8.33 nM; 48 h
Reported inhibition of SARS-CoV-2 cytopathic effect values for a set of molecules
Write the number in % without appending the unit.

Exam item: Please state recorded inhibition of SARS-CoV-2 cytopathic effect (tested on Vero E6 infected with SARS-CoV-2) of `CCCCCNC(=N)N/N=C/c1c[nH]c2ccc(OC)cc12`
Marked response: -0.54

Exam item: Do the same for `CC(C)C[C@H](NC(=O)N1CCCCCC1)C(=O)N[C@H](Cc1cn(C)c2ccccc12)C(=O)N[C@H](Cc1ccccn1)C(=O)O` please
Marked response: 2.47

Exam item: Do the same for `O=C(O)[C@H]1CC[C@H](c2cc3cccnc3c(-c3cccc(F)c3)n2)CC1` please
Marked response: -2.36

Exam item: Do the same for CC(NCCc1ccc(O)cc1)C(O)c1ccc(O)cc1 (stereo not drawn) please
Marked response: -0.09

Exam item: Do the same for COc1ccccc1N1CCN(CC(O)COc2cc(OC)c(OC)c(OC)c2)CC1 (stereo not drawn) please
Marked response: 1.14

Exam item: Do the same for `Cn1c(=O)cnn(CCCCN2CCN(c3ncccn3)CC2)c1=O` please
Marked response: -0.24

Exam item: Do the same for `COc1cc(OC)cc(-c2ccc3c(-c4ccc(F)cc4)n[nH]c3n2)c1` please
Marked response: -1.07

Exam item: Do the same for `O=C(CCBr)N1CCN(C(=O)CCBr)CC1` please
Marked response: -0.92

Exam item: Do the same for `CCOC(=O)c1ccc(NC2CCCCC2)c(N)c1` please
Marked response: 3.56

Exam item: Do the same for `O=C1C=CC[C@@H]2[C@H]3CCCN4CCC[C@@H](CN12)[C@@H]34` please
Marked response: -10.7

Exam item: Do the same for `CCCCc1nc2cc(/C=C/C(=O)NO)ccc2n1CCN(CC)CC` please
Marked response: -0.4

Exam item: Do the same for COc1ccc(-c2nc3cc(C4=NNC(=O)CC4C)ccc3[nH]2)cc1 (stereo not drawn) please
Marked response: -1.84

Exam item: Do the same for `Cc1c[nH]c2ncnc(N3CCC(CN)(C(=O)Nc4cccc(OC(=O)N(C)C)c4)CC3)c12` please
Marked response: -1.69

Exam item: Do the same for `O=C(O)C[C@H](O)C(=O)O` please
Marked response: -2.53

Exam item: Do the same for `CNCCCOc1cc(F)c(-c2c(Cl)nc3ncnn3c2N[C@@H](C)C(F)(F)F)c(F)c1` please
Marked response: 1.13

Exam item: Do the same for `COc1cccc(-c2ccc([C@@H](Oc3cc(-c4ccc(C[C@H](N)C(=O)O)cc4)nc(N)n3)C(F)(F)F)cc2)c1` please
Marked response: -0.04

Exam item: Do the same for `O[C@@H](COc1cccc2ncccc12)CN1CCN([C@@H]2c3ccccc3[C@@H]3[C@H](c4ccccc42)C3(F)F)CC1` please
Marked response: 1.65

Exam item: Do the same for CCC1=C(C)CN(C(=O)NCCc2ccc(S(=O)(=O)NC(=O)N[C@H]3CC[C@H](C)CC3)cc2)C1=O [glimepiride] please
Marked response: -2.65

* * *

- Tested on: Vero E6 infected with SARS-CoV-2
- Assay Remarks: morphology score (similarity to uninfected cells); higher = more like uninfected cells
- Condition Details: 24 h
Could you please classify the records by morphology score using these ranges: category 1 (below 0.02), category 2 (0.02 to below 0.2), category 3 (0.2 or more)

Example entries and their recorded answers appear below.
molecule="O=C(CC12CC3CC(CC(C3)C1)C2)Nc1cccc2nc(NCCNCCO)ccc12 (10 µM)" class_name="category 1"
molecule="CC(C)c1cccc2c1OC(C(C)C)C(=S)N2CC(=O)O (configuration not stated) (10 µM)" class_name="category 1"
molecule="Cc1c(CN(C)C(=O)/C=C/c2cnc3c(c2)CCC(=O)N3)oc2ccccc12 (10 µM)" class_name="category 2"
molecule="CCC[C@H](N[C@@H](C)C(=O)N1[C@H](C(=O)O)C[C@@H]2CCCC[C@@H]21)C(=O)OCC [perindopril] (10 µM)" class_name="category 2"
molecule="C=C1/C(=C\\C=C2/CCC[C@]3(C)[C@@H]([C@H](C)/C=C/C=C/C(O)(CC)CC)CC[C@@H]23)C[C@@H](O)C[C@@H]1O [seocalcitol] (10 µM)" class_name="category 1"

Exam item: Textbook exercise: identify the category of the molecule given here, CN(Cc1ccc(C(C)(C)C)cc1)Cc1cccc2ccccc12 [butenafine] (10 µM) , according to its measured value.
Marked response: category 3

Exam item: Do the same for CNC(=O)c1ccc2c(c1)CCO[C@H]2CCN1CCN(c2ccc(C(N)=O)cc2)CC1 (10 µM) please
Marked response: category 1

Exam item: Do the same for COc1ccc(CNC(=O)/C=C/c2ccc3[nH]cc(CCN(C)C)c3c2)cc1 (10 µM) please
Marked response: category 2

Exam item: Do the same for c1ccc(C[C@H](c2ccccc2)N2CCCCC2)cc1 (racemic) [1-(1,2-diphenylethyl)piperidine-(+/-)] (10 µM) please
Marked response: category 3

Exam item: Do the same for CCOC(=O)/C=C(C)/C=C/C=C(C)/C=C/c1c(C)cc(OC)c(C)c1C [etretinate] (10 µM) please
Marked response: category 1

Exam item: Do the same for Cc1cc(C)c(CNC(=O)c2cc(-c3ccc(N4CCN(C)CC4)nc3)cc3c2c(C)cn3C(C)C)c(=O)[nH]1 (10 µM) please
Marked response: category 2

Exam item: Do the same for O=C1c2ccccc2C(=O)C1c1ccc(Cl)cc1 [chlorindione] (10 µM) please
Marked response: category 1

Exam item: Do the same for N=C(N)SCCc1ccc(OCc2ccc([N+](=O)[O-])cc2)cc1 (10 µM) please
Marked response: category 3

Exam item: Do the same for O=C1O[C@H]([C@@H](O)CO)C([O-])=C1O.[Na+] [sodium-ascorbate] (10 µM) please
Marked response: category 2

Exam item: Do the same for O[C@H]1[C@H](O)[C@@H](O)CN2CC[C@H](O)[C@H]12 [castanospermine] (10 µM) please
Marked response: category 1

Exam item: Do the same for O=P(O)(O)C(O)(Cc1cccnc1)P(=O)(O)O [risedronate] (10 µM) please
Marked response: category 2

Exam item: Do the same for Oc1ccc(Cl)cc1Cc1cc(Cl)ccc1O [dichlorophen] (10 µM) please
Marked response: category 2

* * *

Reported inhibition of SARS-CoV-2 cytopathic effect values for a set of compounds
- System: Vero E6 infected with SARS-CoV-2
- Assay Remarks: inhibition of SARS-CoV-2 cytopathic effect; higher = more antiviral protection, active = above 15
- Condition Details: 8.33 nM; 48 h

compound="c1ccc(C[C@H](c2ccccc2)N2CCCCC2)cc1 (racemic) [1-(1,2-diphenylethyl)piperidine-(+/-)]" study_system="Vero E6 infected with SARS-CoV-2" assay_value="0.67% (inactive)"
compound="CC(=O)c1ccc2c(c1)[C@H](NC(=O)c1ccc(F)c(Cl)c1)[C@H](O)C(C)(C)O2 [tonabersat]" study_system="Vero E6 infected with SARS-CoV-2" assay_value="-1.2% (inactive)"
compound="CCS(=O)(=O)Nc1ccc2c(c1)/C(=C(/Nc1ccc(CN3CCCCC3)cc1)c1ccccc1)C(=O)N2 [hesperadin]" study_system="Vero E6 infected with SARS-CoV-2" assay_value="3.12% (inactive)"
compound="Cc1ncc[nH]1 [2-methylimidazole]" study_system="Vero E6 infected with SARS-CoV-2" assay_value="1.86% (inactive)"

Turning now to a further compound:
Exam item: Recorded inhibition of SARS-CoV-2 cytopathic effect for `N[C@H]1CCN(O)C1=O` , please?
Marked response: -0.335% (inactive)

* * *

- System: Vero E6 infected with SARS-CoV-2
- Assay Remarks: inhibition of SARS-CoV-2 cytopathic effect; higher = more antiviral protection, active = above 15
- Condition Details: 100 nM; 48 h
Measurement Name: inhibition of SARS-CoV-2 cytopathic effect

Below: 4 compounds and their reported inhibition of SARS-CoV-2 cytopathic effect.
compound="CC(C)CN(C[C@@H](O)[C@H](Cc1ccccc1)NC(=O)O[C@H]1CO[C@H]2OCC[C@H]21)S(=O)(=O)c1ccc(N)cc1 [darunavir]" assay_value="-0.7% (inactive)"
compound="O=C(O)[C@H](O)c1ccccc1 [mandelic-acid]" assay_value="3.65% (inactive)"
compound="CCCCCCCCCCCCCCCCO [1-hexadecanol]" assay_value="-0.66% (inactive)"
compound=Cc1cccc(NC(=O)CN2CCC(c3ccccn3)CC2)c1 assay_value="-0.12% (inactive)"

Turning now to a further compound:
Exam item: Recorded inhibition of SARS-CoV-2 cytopathic effect for `O=C(O)c1ccc(S(=O)(=O)N(Cc2ccc(OC(F)(F)F)cc2)c2ncc(C(F)(F)F)cc2Cl)cc1` , please?
Marked response: 1.73% (inactive)
